# Tested on: OVCAR-5 ovarian
# measurement protocol: NCI-60 one-dose screen, 48 h
# details: 10 µM unless noted
The panel holds about 83,000 compounds, 20% with a hit somewhere; the sample as a whole holds those more often. Active and inactive are the calls of the source. Rule for the calls: active = growth percent below 10; inactive = the rest.
Classes used: label 1 = active, label 0 = inactive

* CCOC(=O)c1sc(/N=C2\NC(=O)/C(=C/c3ccc(N4CCN(C)CC4)cc3)S2)nc1C | label 0
* CCc1n(Cc2ccc3ccccc3c2)c2ccccc2[n+]1Cc1ccc2ccccc2c1 | label 0
* COc1ccc2nc3c(n2c1)C(=O)C(=O)c1ccccc1-3 | label 1
* c1ccc2nc(N3CCOCC3)c(N3CCCCC3)nc2c1 | label 0
* CC1(C)[C@@H](O)CC[C@]2(C)[C@H]3CC[C@@H]4[C@H]5[C@H](c6cn(-c7ccccc7)nn6)CC[C@]5(CO)CC[C@@]4(C)[C@]3(C)CC[C@@H]12 | label 0
* Oc1c(CCl)cc(Cl)cc1Cc1cc(Cl)cc(Cc2cc(Cl)cc(CCl)c2O)c1O | label 0
* Cc1ccccc1NC(=O)c1sc2nc(C)c(C(C)O)cc2c1N (configuration not stated) | label 0
* Cc1ccc(C(=O)/C(=C/c2ccc([N+](=O)[O-])cc2)S(=O)Cc2ccccc2)cc1 (configuration not stated) | label 0
* Cc1cc2ccccc2c[n+]1CC(=O)c1ccc(-c2ccccc2)cc1 | label 0
* COc1ccc(C(C)c2cc(OC)c(OC)c(OC)c2)cc1 (configuration not stated) | label 0
* CC(=O)OCC1OC(OC2C(COC(C)=O)OC(OCCC[S-])C(OC(C)=O)C2OC(C)=O)C(OC(C)=O)C(OC(C)=O)C1OC(C)=O.[Au+].c1ccc(CN2[CH-]N(Cc3ccccc3)C(c3ccccc3)=C2c2ccccc2)cc1 (configuration not stated) | label 0
* Nc1c(C(=O)Nc2ccccn2)sc2nc3c(cc12)C(=O)CCC3 | label 0
* CCOCc1nc2ccccc2c(=O)[nH]1 | label 0
* COc1cc2nc3c(=O)n(-c4ccc(C#N)cc4)cnn3c(=O)c2cc1OC | label 0
* O=C(Nc1ccc(S(=O)(=O)NC2CCCCCC2)cc1)C(c1ccccc1)S(=O)(=O)c1ccc(F)cc1 (configuration not stated) | label 1
* CC(=O)OC[C@]12CC[C@@H](c3cn(Cc4ccc(Cn5cc([C@@H]6CC[C@]7(COC(C)=O)CC[C@]8(C)[C@H](CC[C@@H]9[C@@]%10(C)CC[C@H](OC(C)=O)C(C)(C)[C@@H]%10CC[C@]98C)[C@@H]67)nn5)cc4)nn3)[C@@H]1[C@H]1CC[C@@H]3[C@@]4(C)CC[C@H](OC(C)=O)C(C)(C)[C@@H]4CC[C@@]3(C)[C@]1(C)CC2 | label 0
* Cc1ccc(-c2nc(C#N)c(S(=O)(=O)N(C)CCO)o2)cc1 | label 0
* Cc1nccc2c3ccc(OCc4cn(-c5ccc(Br)cc5)nn4)cc3n(CC(C)C)c12 | label 0
* Cc1[nH]c(N=Nc2ccccc2)nc1N=Nc1ccccc1 | label 0
* OCCNc1nc(NCCO)nc(Nc2ccc(C3=NN(c4ccc(Cl)cc4)C(c4ccc(Cl)cc4)C3)cc2)n1 (configuration not stated) | label 0
* S=C(Nc1ccccc1)c1ccccn1 | label 0
* COc1cc([C@H](C)c2ccc3ccccc3c2)cc(OC)c1OC | label 0
* CC1=C/C(=N\N=C2/C=C(C)CC(C)(C)C2)CC(C)(C)C1 | label 0
* CCc1c(C(=O)N[C@@H](C(=O)OCc2ccccc2)C(C)O)[nH]c2ccc(Cl)cc12 (some centres not stated) | label 0
* CC1CCN(CCCCCOc2ccc3oc4cc(Cl)ccc4c(=O)c3c2)CC1 | label 0
* COc1ccccc1Nc1nnc(-c2ccc(Cl)cc2)o1 | label 0
* COc1ccc([C@H]2[C@@H](F)C(=O)N2c2cc(OC)c(OC)c(OC)c2)cc1F | label 0
* c1ccc(-c2n(Cc3ccc4ccccc4n3)cc[n+]2Cc2ccc3ccccc3n2)cc1 | label 0
* Cc1nc2sc(C(=O)Nc3cccc4ccccc34)c(N)c2cc1C(C)O (configuration not stated) | label 0
* CC(C)(C)c1ccc2oc(=O)n(SC(Cl)(Cl)Cl)c2c1 | label 0
* CCCCn1c(=O)c(/C=C/C(=O)/C=C/c2ccc(O)c(OC)c2)cc2ccc(Cl)cc21 | label 0
* COc1ccc(-c2cc(C(=O)N3N=C(c4ccc(N)cc4)CC3c3ccc(OC)cc3)c3cc(OC)ccc3n2)cc1 (configuration not stated) | label 0
* COC(=O)/C=C1\SC(=Nc2cccc(Cl)c2)N(CCc2c[nH]c3ccccc23)C1=O | label 0
* CCOC(=O)c1c(-c2ccc(O)cc2)c(C#N)c2c(C#N)c(N)nn2c1N | label 0
* O=C(/C(=C/c1ccc([N+](=O)[O-])cc1)SCc1ccc(F)cc1)c1ccc(Cl)cc1 | label 0
* Oc1ccc(CNNc2ccnc3c(O)cccc23)c2cccnc12 | label 0
* COc1cc(/C=C/C(=O)c2ccc(NC(=O)CSc3nnc(-c4cc(OC)c(OC)c(OC)c4)n3-c3ccccc3)cc2)cc(OC)c1OC | label 0
